Recorded [Mod] Fold Change Myo for the following molecules
# System: primary human skeletal myotubes
# Assay comment: IRES screening, Gaussia luciferase from LNP-oRNA (Table 27)
# Experimental parameters: Gaussia luciferase luminescence in supernatant 48 hours after LNP-oRNA transfection, normalized to control (caprine kobuvirus IRES)
Recorded metric: [Mod] Fold Change Myo (Fold Change)

[
  {
    "Molecule": "CCCCCCCCC(CCCCCC)C(=O)OCCCCCCN(CCCCCCOC(=O)C(CCCCCC)CCCCCCCC)CCn1ccnc1C (stereo not shown) [Lipid 10a-139]",
    "Recorded metric": "[Mod] Fold Change Myo",
    "Units symbol": "Fold Change",
    "Quantitative readout": 0.0597
  },
  {
    "Molecule": "CCCCCCCCCN(CCCCn1ccnc1C)C(CCCCCCCCC(=O)OCC(CCCC)CCCCCC)CCCCCCCCC(=O)OCC(CCCC)CCCCCC (stereo not shown) [Lipid 10a-147]",
    "Recorded metric": "[Mod] Fold Change Myo",
    "Units symbol": "Fold Change",
    "Quantitative readout": 0.04264
  },
  {
    "Molecule": "CC(CCOC(=O)CCCCCCCCN(CCCCCCCCC(=O)OCCC(C)CC(C)(C)C)CCCn1ccnc1)CC(C)(C)C (stereo not shown) [Lipid 10a-104]",
    "Recorded metric": "[Mod] Fold Change Myo",
    "Units symbol": "Fold Change",
    "Quantitative readout": 0.07607
  },
  {
    "Molecule": "Cc1nccn1CCCC(=O)OC(CCCCCCOC(=O)CC(C)CCCC(C)C)CCCCCCOC(=O)CC(C)CCCC(C)C (stereo not shown) [Lipid 10a-117]",
    "Recorded metric": "[Mod] Fold Change Myo",
    "Units symbol": "Fold Change",
    "Quantitative readout": 0.04273
  }
]
